Listed here are compounds together with their documented uptake ratio at 1 h, 100 µM.
Test protocol: Uptake of [125I]iodothyronine derivatives by Xenopus laevis oocytes injected with oatp1 cRNA
Experimental setup: xenopus oocytes, oatp1 crna

- N[C@@H](Cc1ccc(Oc2cc(I)c(O)c(I)c2)c(I)c1)C(=O)O: 6
- N[C@@H](Cc1ccc(Oc2ccc(O)c(I)c2)c(I)c1)C(=O)O: 1.4

Then there is this compound:
Entry N[C@@H](Cc1cc(I)c(Oc2cc(I)c(O)c(I)c2)c(I)c1)C(=O)O ; uptake ratio at 1 h, 100 µM = 2.8

---

Test protocol: Uptake of [125I]iodothyronine derivatives by Xenopus laevis oocytes injected with Ntcp cRNA
// values below are reported uptake ratio at 1 h, 100 µM
Returns: the value as a bare number; no unit string appended.

* N[C@@H](Cc1ccc(Oc2cc(I)c(O)c(I)c2)c(I)c1)C(=O)O [rT3, 3,3',5'-triiodothyronine] | 1.8

Now consider a different compound.
Recorded result, N[C@@H](Cc1ccc(Oc2ccc(O)c(I)c2)c(I)c1)C(=O)O [3,3'-T2, 3,3'-diiodothyronine] , uptake ratio at 1 h, 100 µM: 1.3
